experiment: Stabilization of 5'-FAM/3'-TAMRA labeled hairpin DNA F10T (unknown origin) assessed as change in melting temperature at 1 uM by FRET assay (reference value: 59.1 degreeC)
endpoint: ΔTm (°C)
Numbers only, in °C.

record.smiles: c1ccc2c(NCCOCCOCCNc3c4ccccc4nc4ccccc34)c3ccccc3nc2c1
recorded.number: 3.4
//
record.smiles: Cc1ccc2nc3ccc(C)cc3c(NCCOCCOCCNc3c4cc(C)ccc4nc4ccc(C)cc34)c2c1
recorded.number: 2.3
//
record.smiles: Cc1ccc2nc3ccccc3c(NCCCCCCNc3c4ccccc4nc4ccc(C)cc34)c2c1
recorded.number: 1.7
//
record.smiles: c1ccc2c(NCCCCCCCNc3c4ccccc4nc4ccccc34)c3ccccc3nc2c1
recorded.number: 9.3
//
record.smiles: Cc1ccc2nc3ccc(C(=O)NCCCN(C)C)cc3c(NCCOCCOCCNc3c4cc(C)ccc4nc4ccc(C(=O)NCCCN(C)C)cc34)c2c1
recorded.number: 2.2

// each compound listed below needs its ΔTm
1. c1ccc2c(NCCCNCCNCCCNc3c4ccccc4nc4ccccc34)c3ccccc3nc2c1
2. Cc1ccc2nc3ccccc3c(NCCCCNc3c4ccccc4nc4ccc(C)cc34)c2c1

Reply |
1: 9.8; 2: 2

// each compound listed below needs its ΔTm
1. Cc1ccc2nc3ccccc3c(NCCCCCNc3c4ccccc4nc4ccc(C)cc34)c2c1
2. Cc1ccc2nc3ccc(C)cc3c(NCCCN(C)CCCNc3c4cc(C)ccc4nc4ccc(C)cc34)c2c1

Reply |
1: 1.9; 2: 3.8

###

test system: Quadruplex DNA; test: Stabilization of 5'-FAM/3'-TAMRA labeled c-myc promoter G-quadruplex DNA FPu22T (unknown origin) assessed as change in melting temperature at 1 uM by FRET assay (reference value: 66.5 degreeC); format: nucleic-acid assay
endpoint: ΔTm (°C)
Give bare numbers, in °C.

Record excerpt, results attached:
record.smiles: COC(=O)c1ccc2nc3ccc(C)cc3c(NCCCNCCNCCCNc3c4cc(C)ccc4nc4ccc(C(=O)OC)cc34)c2c1
ΔTm [°C]: 8.6
//
record.smiles: Cc1ccc2nc3ccccc3c(NCCCCCCCNc3c4ccccc4nc4ccc(C)cc34)c2c1
ΔTm [°C]: 15.3
//
record.smiles: Cc1ccc2nc3ccc(C(=O)NCCCN(C)C)cc3c(NCCOCCOCCNc3c4cc(C)ccc4nc4ccc(C(=O)NCCCN(C)C)cc34)c2c1
ΔTm [°C]: 8.3
//
record.smiles: c1ccc2c(NCCCNCCNCCCNc3c4ccccc4nc4ccccc34)c3ccccc3nc2c1
ΔTm [°C]: 12.5
//
record.smiles: CN(CCCNc1c2ccccc2nc2ccccc12)CCCNc1c2ccccc2nc2ccccc12
ΔTm [°C]: 7.7

# context switch: different compound, same ΔTm
Ask | Look up ΔTm: Cc1ccc2nc3ccc(C)cc3c(NCCCCNc3c4cc(C)ccc4nc4ccc(C)cc34)c2c1
Reply | 10.4

###

target: Quadruplex DNA; test: Binding affinity to 5'-biotin labeled c-myc promoter G-quadruplex DNA Pu27 (unknown origin) by surface plasmon resonance method; type: nucleic-acid assay
Would you kindly list log10 Kd for each of these compounds?
Scale: decimal log of Kd, Kd in µM.

Record excerpt, results attached:
record.smiles: Cc1ccc2nc3ccccc3c(NCCCN(C)CCCNc3c4ccccc4nc4ccc(C)cc34)c2c1
tgt: Quadruplex DNA
log10 Kd: 0.84

record.smiles: Cc1ccc2nc3ccc(C)cc3c(NCCCCCCCNc3c4cc(C)ccc4nc4ccc(C)cc34)c2c1
tgt: Quadruplex DNA
log10 Kd: 0.79

record.smiles: Cc1ccc2nc3ccc(C(=O)NCCCN(C)C)cc3c(NCCOCCOCCNc3c4cc(C)ccc4nc4ccc(C(=O)NCCCN(C)C)cc34)c2c1
tgt: Quadruplex DNA
log10 Kd: 0.57

// each compound listed below needs its log10 Kd
1. CN(CCCNc1c2ccccc2nc2ccccc12)CCCNc1c2ccccc2nc2ccccc12
2. Cc1ccc2nc3ccc(C)cc3c(NCCCCCNc3c4cc(C)ccc4nc4ccc(C)cc34)c2c1
3. Cc1ccc2nc3ccc(C)cc3c(NCCCCNc3c4cc(C)ccc4nc4ccc(C)cc34)c2c1
4. Cc1ccc2nc3ccccc3c(NCCCCCCCNc3c4ccccc4nc4ccc(C)cc34)c2c1
5. Cc1ccc2nc3ccccc3c(NCCCCCCNc3c4ccccc4nc4ccc(C)cc34)c2c1
6. Cc1ccc2nc3ccc(C)cc3c(NCCOCCOCCNc3c4cc(C)ccc4nc4ccc(C)cc34)c2c1
7. c1ccc2c(NCCNCCNc3c4ccccc4nc4ccccc34)c3ccccc3nc2c1

Reply |
1.26
0.86
0.46
1.01
1.16
0.56
0.67

###

test: Stabilization of 5'-FAM/3'-TAMRA labeled c-myc promoter i-motif DNA FPy33T (unknown origin) assessed as change in melting temperature at 1 uM by FRET assay (reference value: 53.2 degreeC)
Our labelling divides records by ΔTm into ranges: one = under 1 °C, two = from 1 °C up to 3 °C, three = 3 °C and over

Ask | Would you mind sorting c1ccc2c(NCCCNc3c4ccccc4nc4ccccc34)c3ccccc3nc2c1 into the appropriate category?
Reply | two

Ask | Would you mind sorting Cc1ccc2nc3ccc(C)cc3c(NCCCCCCCNc3c4cc(C)ccc4nc4ccc(C)cc34)c2c1 into the appropriate category?
Reply | two

Ask | Would you mind sorting Cc1ccc2nc3ccc(C)cc3c(NCCCCNc3c4cc(C)ccc4nc4ccc(C)cc34)c2c1 into the appropriate category?
Reply | three

Ask | Would you mind sorting CN(CCCNc1c2ccccc2nc2ccccc12)CCCNc1c2ccccc2nc2ccccc12 into the appropriate category?
Reply | three

###

assay: Drug uptake in human SiHa cells; assay type: ADME, cell-based

record.smiles: Cc1ccc2nc3ccc(C(=O)NCCCN(C)C)cc3c(NCCOCCOCCNc3c4cc(C)ccc4nc4ccc(C(=O)NCCCN(C)C)cc34)c2c1
Drug uptake: Not Active

record.smiles: Cc1ccc2nc3ccc(C)cc3c(NCCCNCCNCCCNc3c4cc(C)ccc4nc4ccc(C)cc34)c2c1
Drug uptake: Active

record.smiles: Cc1ccc2nc3ccc(C)cc3c(NCCOCCOCCNc3c4cc(C)ccc4nc4ccc(C)cc34)c2c1
Drug uptake: Active

record.smiles: Cc1ccc2nc3ccc(C(=O)NCCCN(C)C)cc3c(NCCCNCCNCCCNc3c4cc(C)ccc4nc4ccc(C(=O)NCCCN(C)C)cc34)c2c1
Drug uptake: Not Active

###

tested on: SiHa; assay: Antiproliferative activity against human SiHa cells after 48 hrs by MTT assay; format: functional, cell-based
Decide using IC50 alone. Strictly below 2000 nM: satisfied. Equal to or above 2000 nM: not satisfied.

record.smiles: Cc1ccc2nc3ccccc3c(NCCCN(C)CCCNc3c4ccccc4nc4ccc(C)cc34)c2c1
class: satisfied

Ask | Check if IC50 falls below 2000 nM for Cc1ccc2nc3ccccc3c(NCCOCCOCCNc3c4ccccc4nc4ccc(C)cc34)c2c1 .
Reply | not satisfied

Ask | Check if IC50 falls below 2000 nM for Cc1ccc2nc3ccc(C)cc3c(NCCCNCCNCCCNc3c4cc(C)ccc4nc4ccc(C)cc34)c2c1 .
Reply | satisfied

Ask | Check if IC50 falls below 2000 nM for Cc1ccc2nc3ccccc3c(NCCCCCNc3c4ccccc4nc4ccc(C)cc34)c2c1 .
Reply | not satisfied

Ask | Check if IC50 falls below 2000 nM for Cc1ccc2nc3ccc(C)cc3c(NCCCCCNc3c4cc(C)ccc4nc4ccc(C)cc34)c2c1 .
Reply | satisfied

Ask | Check if IC50 falls below 2000 nM for c1ccc2c(NCCNCCNc3c4ccccc4nc4ccccc34)c3ccccc3nc2c1 .
Reply | not satisfied

###

experiment: Stabilization of 5'-FAM/3'-TAMRA labeled hairpin DNA F10T (unknown origin) assessed as change in melting temperature at 1 uM by FRET assay (reference value: 59.1 degreeC)
Would you kindly list ΔTm for each of these molecules?
Give bare numbers, in °C.

// each molecule listed below needs its ΔTm
1. Cc1ccc2nc3ccc(C)cc3c(NCCCNCCNCCCNc3c4cc(C)ccc4nc4ccc(C)cc34)c2c1
2. c1ccc2c(NCCNCCNc3c4ccccc4nc4ccccc34)c3ccccc3nc2c1
3. Cc1ccc2nc3ccc(C)cc3c(NCCCCNc3c4cc(C)ccc4nc4ccc(C)cc34)c2c1
4. COC(=O)c1ccc2nc3ccc(C)cc3c(NCCCNCCNCCCNc3c4cc(C)ccc4nc4ccc(C(=O)OC)cc34)c2c1
5. Cc1ccc2nc3ccc(C)cc3c(NCCCCCNc3c4cc(C)ccc4nc4ccc(C)cc34)c2c1
6. CN(CCCNc1c2ccccc2nc2ccccc12)CCCNc1c2ccccc2nc2ccccc12

Reply |
[4.5, 2.5, 0.8, 4.8, 2.7, 10.8]

// each molecule listed below needs its ΔTm
1. Cc1ccc2nc3ccc(C)cc3c(NCCCCCCNc3c4cc(C)ccc4nc4ccc(C)cc34)c2c1
2. c1ccc2c(NCCCNc3c4ccccc4nc4ccccc34)c3ccccc3nc2c1
3. COC(=O)c1ccc2nc3ccc(C)cc3c(NCCOCCOCCNc3c4cc(C)ccc4nc4ccc(C(=O)OC)cc34)c2c1

Reply |
1: 2.7; 2: 2.2; 3: 2.5
